src = PubChem BioAssay (EPA / NIEHS)

Method Summary: ATG_ERE_CIS: Attagene CIS-FACTORIAL HepG2 Assay for Estrogen Response Element (ERE) (AID 2282940)
Condition Notes: HepG2 ERE cis-reporter, Attagene RNA transcript; actives raise or lower the signal
Calls of active or inactive are those of the source. The calls were made as follows: active = hit-call score of the fitted dose curve at least 0.9, where 1 is the maximum; inactive = score below 0.9.
Response enum: active, inactive

{"Molecule": "O=C(O)C(F)(F)OC(F)(F)C(F)(F)OC(F)(F)F", "Assigned Category": "inactive"}

Alright, here's another molecule for you.
Could you check what this test reported for O=P1(N(CCCl)CCCl)NCCCO1 (stereo not given) ?
active

====

Read-out: Basic fibroblast growth factor (bFGF), FGF2 (gene 2247)
Method Summary: BSK_MyoF_bFGF: BioMAP Diversity Plus: MyoF Assay for Basic fibroblast growth factor (bFGF) Biomarker Activity (AID 2284246)
Condition Notes: primary human lung fibroblasts
The source made the active and inactive calls. How the source made its calls: active means hit-call score of the fitted dose curve at least 0.9, where 1 is the maximum; inactive means score below 0.9.
Respond with a class label; see yes = active, no = inactive

The examples below pair each entry with its known result.
{"Compound": "O=C(O)C(F)(F)OC(F)(F)C(F)(F)OC(F)(F)C(=O)O", "Assigned Category": "no"}
{"Compound": "CCOP(=S)(S)OCC", "Assigned Category": "no"}
{"Compound": "O=S(=O)(F)C(F)(F)C(F)(F)C(F)(F)C(F)(F)C(F)(F)C(F)(F)C(F)(F)C(F)(F)F", "Assigned Category": "no"}
{"Compound": "COC(=O)C(F)(F)C(F)(F)OC(F)(C(F)(F)F)C(F)(F)OC(F)=C(F)F (stereo not drawn)", "Assigned Category": "no"}
{"Compound": "ClC(Cl)=C(c1ccc(Cl)cc1)c1ccccc1Cl", "Assigned Category": "yes"}

What was the test verdict on O=C(O)C(F)(F)OC(F)(F)C(F)(F)OC(F)(F)F ?
no

Dear colleague, could you share the recorded outcome for CC(C)Nc1ccc(Nc2ccccc2)cc1 when you have a moment?
yes

Any idea what this test logged for OCC(F)(F)OC(F)(F)C(F)(F)OC(F)(F)C(F)(F)OC(F)(F)CO ?
no

====

Target: Paired box protein Pax-6 (Homo sapiens) (UniProt P26367)
Sequence (P26367 whole entry, looked up): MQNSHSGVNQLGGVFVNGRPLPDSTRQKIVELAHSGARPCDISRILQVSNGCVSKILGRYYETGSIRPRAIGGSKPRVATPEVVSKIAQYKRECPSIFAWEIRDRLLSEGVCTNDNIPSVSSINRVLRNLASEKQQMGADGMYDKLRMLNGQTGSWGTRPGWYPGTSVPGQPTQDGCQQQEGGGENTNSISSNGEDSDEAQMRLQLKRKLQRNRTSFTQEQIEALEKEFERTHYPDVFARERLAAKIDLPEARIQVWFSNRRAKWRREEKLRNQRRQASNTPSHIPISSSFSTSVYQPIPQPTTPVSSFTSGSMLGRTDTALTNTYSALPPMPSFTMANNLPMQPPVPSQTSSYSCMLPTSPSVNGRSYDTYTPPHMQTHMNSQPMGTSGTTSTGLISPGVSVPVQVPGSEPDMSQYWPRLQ
Method Summary: ATG_Pax6_CIS: Attagene CIS-FACTORIAL HepG2 Assay for human Paired Box 6 (PAX6) (AID 2282956)
Condition Notes: HepG2 CIS-FACTORIAL PAX6 reporter transcription, RNA readout; actives raise or lower the signal
Protocol: ATG_CIS is a cell-based, multiplexed-readout assay that uses HepG2, a human liver cell line, with measurements taken at 24 hours after chemical dosing in a 24-well plate.ATG_Pax6_CIS is one of 52 assay component(s) measured or calculated from the ATG_CIS assay. […] This assay endpoint, ATG_Pax6_CIS, was analyzed with bidirectional fitting relative to DMSO as the negative control and baseline of activity. […]
Active and inactive are the calls of the source. Rule for the calls: active = hit-call score of the fitted dose curve at least 0.9, where 1 is the maximum; inactive = score below 0.9.
Metric: outcome

{"Cpd Smiles": "O=C(O)C(Cl)Cl", "Metric": "outcome", "Data Value": "inactive"}
{"Cpd Smiles": "O=[N+]([O-])c1ccccc1", "Metric": "outcome", "Data Value": "inactive"}
{"Cpd Smiles": "COP(N)(=S)OC", "Metric": "outcome", "Data Value": "inactive"}

====

Read-out: Vascular endothelial growth factor receptor 2 (Homo sapiens) (UniProt P35968)
Method Summary: BSK_4H_VEGFRII: BioMAP Diversity Plus: 4H Assay for Vascular endothelial growth factor receptor 2 (VEGFR2) Biomarker Activity (AID 2283031)
Condition Notes: primary human endothelial cells (HUVEC); actives raise or lower the signal
Protocol: BSK_4H is a cell-based, multiplexed-readout assay that uses umbilical vein endothelium, a human vascular primary cell, with measurements taken at 24 hours after chemical dosing in a 96-well plate.BSK_4H_VEGFRII is an assay component measured in the BSK_4H assay. It measures VEGFRII antibody related to regulation of gene expression using ELISA technology.Data from the assay component BSK_4H_VEGFRII was analyzed into 1 assay endpoint. […]
Activity calls are given as the source filed them. Rule for the calls: active = hit-call score of the fitted dose curve at least 0.9, where 1 is the maximum; inactive = score below 0.9.
Can you answer with just one of these options? active, inactive

{"Compound": "ClC(Cl)c1ccccc1", "Assigned Category": "inactive"}

Please examine the following record next.
Assay result, entry CC(C)(C)c1ccccc1OP(=O)(Oc1ccccc1)Oc1ccccc1 — outcome?
inactive

====

Read-out: Pselectin, SELP (gene 6403)
Method Summary: BSK_4H_Pselectin: BioMAP Diversity Plus: 4H Assay for Pselectin Biomarker Activity (AID 2283026)
Condition Notes: primary human endothelial cells (HUVEC); actives raise or lower the signal
Active and inactive are the calls of the source. The calls were made as follows: active = hit-call score of the fitted dose curve at least 0.9, where 1 is the maximum; inactive = score below 0.9.
Classes to choose from: active, inactive

Below are worked cases with known answers.
{"Compound": "ClC1=C(Cl)C2(Cl)C3C(Cl)C(Cl)CC3C1(Cl)C2(Cl)Cl (stereo unspecified)", "Assigned Category": "active"}
{"Compound": "CCOP(=S)(OCC)SCSc1ccc(Cl)cc1", "Assigned Category": "active"}
{"Compound": "CCCCC(CC)COP(=O)(Oc1ccccc1)Oc1ccccc1 (stereo unspecified)", "Assigned Category": "active"}
{"Compound": "[N-]=[N+]=[N-]", "Assigned Category": "inactive"}
{"Compound": "CC(Cc1ccc(OCC(=O)O)cc1)NCC(O)c1csc(C(F)(F)F)n1 (stereo unspecified)", "Assigned Category": "inactive"}

Pending compound:
Which outcome did this test record for the compound CC(O)C(F)(F)C(F)(F)F (stereo unspecified) ?
inactive

====

Method Summary: CCTE_Shafer_MEA_acute_per_burst_spike_number_mean: CCTE's Neural Acute Assay for Average Number of Spikes Per Burst, Shafer Lab (AID 2284015);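 also: hits are decreases in mean spikes per burst versus baseline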
Activity calls are given as the source filed them. The calls were made as follows: active = hit-call score of the fitted dose curve at least 0.9, where 1 is the maximum; inactive = score below 0.9.
Reply using exactly one outcome from y (active), n (inactive)

Check out these entries, answers already filled in.
{"Cpd Smiles": "COP(=O)(CCC(=O)NCO)OC", "Assigned Category": "y"}
{"Cpd Smiles": "c1ccc2c(c1)Nc1ccccc1S2", "Assigned Category": "n"}

Please turn your attention to the following entry.
For this compound, state the assay outcome: ClC(Cl)(Cl)c1ccccc1
n

====

Read-out: Human Leukocyte Antigen - DR isotype (HLADR), HLA-DRA (gene 3122)
Method Summary: BSK_3C_HLADR: BioMAP Diversity Plus: 3C Assay for Human Leukocyte Antigen - DR isotype (HLADR) Biomarker Activity (AID 2283019)
Condition Notes: primary human endothelial cells (HUVEC); actives raise or lower the signal
Activity calls are given as the source filed them. The calls were made as follows: active = hit-call score of the fitted dose curve at least 0.9, where 1 is the maximum; inactive = score below 0.9.
// one of 1.0 (active), 0.0 (inactive), no free text

Some entries whose results are on file:
{"Compound": "ClC(Cl)c1ccccc1", "Assigned Category": 0.0}
{"Compound": "Cc1cccc(N)c1", "Assigned Category": 0.0}
{"Compound": "N#Cc1cc([N+](=O)[O-])ccc1N", "Assigned Category": 0.0}
{"Compound": "CCOP(=S)(Oc1ccc([N+](=O)[O-])cc1)c1ccccc1 (stereo not drawn)", "Assigned Category": 0.0}
{"Compound": "OCC(F)(F)OC(F)(F)C(F)(F)OC(F)(F)CO", "Assigned Category": 0.0}
{"Compound": "O=S1(=O)OCC2C(CO1)C1(Cl)C(Cl)=C(Cl)C2(Cl)C1(Cl)Cl (stereo not drawn)", "Assigned Category": 1.0}
{"Compound": "CCCN(CCC)c1c([N+](=O)[O-])cc(C(C)C)cc1[N+](=O)[O-]", "Assigned Category": 1.0}
{"Compound": "Cc1ccc([N+](=O)[O-])cc1C", "Assigned Category": 0.0}
{"Compound": "O=[N+]([O-])c1ccc(Cl)c(Cl)c1", "Assigned Category": 0.0}
{"Compound": "CC(Cl)(Cl)C(=O)O", "Assigned Category": 0.0}

Test call, this compound: CSC(C)(C)C=NO
0.0

Per the records of this test, what outcome belongs to CCOP(=S)(OCC)SCSc1ccc(Cl)cc1 ?
1.0

Which outcome did this test record for the compound CC(Cl)CN(C)C (stereo not drawn) ?
1.0

Kindly provide the recorded test outcome for the following compound: C=CC(=O)OCC(CC)(COC(=O)C=C)COC(=O)C=C
1.0

Could you please tell me the result logged for CCNc1nc(Cl)nc(NC(C)(C)C)n1 in this assay?
0.0

Recorded call for CC(C)(C)OOC(C)(C)C ?
0.0

What did this assay record as the result for [N-]=[N+]=[N-] ?
0.0

Assay outcome for O=C(O)C(Cl)Cl : what was it?
0.0

Hey, what did the test say about O=[N+]([O-])c1ccccc1 ?
0.0

For this compound, state the assay outcome: Cc1ccc2c(c1N)C(=O)c1ccccc1C2=O
1.0

Assay result, entry Cc1ccc(O)cc1C — outcome?
0.0

Status in this test for CCCCOCCOP(=O)(OCCOCCCC)OCCOCCCC ?
1.0

Could you kindly confirm the outcome this assay logged for O=C(O)C=CC(F)(C(F)(F)F)C(F)(F)F ?
0.0

Status in this test for COP(N)(=S)OC ?
0.0

Recorded test call requested for CCCCN(CCCC)SN(C)C(=O)Oc1cccc2c1OC(C)(C)C2
1.0

Dear colleague, could you share the recorded outcome for CCOP(=S)(NC(C)C)Oc1ccccc1C(=O)OC(C)C (stereo not drawn) when you have a moment?
0.0

For Cc1c([N+](=O)[O-])cc2c(c1[N+](=O)[O-])C(C)(C)CC2(C)C , which call appears in the assay record?
1.0

Entry CCCCC(CC)COC(=O)c1c(Br)c(Br)c(Br)c(Br)c1C(=O)OCC(CC)CCCC (stereo not drawn) : call = ?
0.0
